Assay: qHTS assay for small molecule agonists of the p53 signaling pathway (AID 651631); further: nearly all actives have a fitted effect of over 15% in size
Details: HCT-116 p53RE-bla reporter, beta-lactamase FRET ratio, 16 h; series mostly up to 73.3 µM
Text: U.S. Tox21 Program National Center for Advancing Translational Sciences [NCATS] NIH Chemical Genomics Center [NCGC] U.S. Environmental Protection Agency [EPA] National Institutes of Environmental Health Sciences [NIEHS] National Toxicology Program [NTP] U.S. Food and Drug Administration [FDA] […] The activation of the reporter gene under culture conditions can be detected by fluorescence intensity. […]
Records with an inconclusive call do not appear. Calls of active or inactive are those of the source. The call rests on the fitted dose curve.
Outcome field: choose from active, inactive

Ask: # fetch the recorded call for C=CCN1CCCC1CNC(=O)c1cc(S(N)(=O)=O)cc(OC)c1OC (stereo not drawn) here
Reply: inactive

Ask: What outcome does the record of this test show for CC(C)(C)C(=O)OCOC(=O)[C@@H]1N2C(=O)[C@@H](N=CN3CCCCCC3)[C@H]2SC1(C)C ?
Reply: inactive

Ask: Status in this test for CC1(C)S[C@@H]2[C@H](NC(=O)C(C(=O)O)c3ccsc3)C(=O)N2[C@H]1C(=O)O (stereo partly drawn) ?
Reply: inactive

Ask: Fill in: this test's call for CCCCC(=O)OCC(=O)[C@]1(O)Cc2c(O)c3c(c(O)c2[C@@H](O[C@H]2C[C@H](NC(=O)C(F)(F)F)[C@H](O)[C@H](C)O2)C1)C(=O)c1c(OC)cccc1C3=O is ___
Reply: active

Ask: Would you mind telling me which call this test gave CO[C@H]1O[C@@H]2O[C@@]3(C)CC[C@H]4[C@H](C)CC[C@@H]([C@H]1C)[C@@]24OO3 ?
Reply: inactive

Ask: Per the assay record, what outcome was assigned to Cc1ccc(/C(=C\CN2CCCC2)c2cccc(/C=C/C(=O)O)n2)cc1 ?
Reply: inactive

Ask: Please state the recorded outcome for this compound: C[N+](C)(CCCCCC[N+](C)(C)C1c2ccccc2-c2ccccc21)C1c2ccccc2-c2ccccc21
Reply: inactive

Ask: GET /call?item= CCOc1ccc(N=C(C)Nc2ccc(OCC)cc2)cc1 returns the recorded outcome of this test.
Reply: inactive

====

target: Nuclear receptor subfamily 1 group I member 2 (Homo sapiens); assay: Human pregnane X receptor (PXR) activation by small molecules, qHTS assay (AID 1346985); conditions: DPX-2 HepG2 CYP3A4-luciferase, 24 h; series mostly up to 38.3 µM; further: nearly all actives have a fitted effect of over 40% in size
Records with an inconclusive call do not appear. The source made the active and inactive calls. Calls come from the whole dose curve; as a rule, active = well fitted activation curve with a large enough effect in the repeat runs; inconclusive = weak or mixed curves; inactive = flat fitted curve, though single readings scatter.
Bench note: report the call from Y = active, N = inactive

Ask: Please share the test call associated with COC(=O)CCC[N+](C)(C)C .
Reply: N

Ask: Recorded test outcome, item O=[N+]([O-])c1c(Cl)cccc1-c1c[nH]cc1Cl
Reply: Y

Ask: Field: outcome | Entry: CCCCCCCCCCCCCCCC(=O)OC[C@@H](O)[C@H]1OC[C@H](O)[C@H]1O
Reply: N

Ask: Returns: the outcome recorded for C[N+]1(C)[C@@H]2CC(OC(=O)C(O)(c3cccs3)c3cccs3)C[C@H]1[C@@H]1O[C@@H]12 (stereo partly drawn) in this assay.
Reply: N

Ask: Record request — test call for CO[C@H]1C=CO[C@@]2(C)Oc3c(C)c(O)c4c(O)c(c5c(nc6cc(C)ccn65)c4c3C2=O)NC(=O)/C(C)=C\C=C[C@H](C)[C@H](O)[C@@H](C)[C@@H](O)[C@@H](C)[C@H](OC(C)=O)[C@@H]1C
Reply: Y

Ask: Write down the call the test reported for this compound. Item: Cc1ncc(C[n+]2csc(CCOP(=O)(O)OP(=O)(O)O)c2C)c(N)n1
Reply: N

Ask: In this assay, the call recorded for C=Cc1c(C)c2cc3nc(cc4[nH]c(cc5nc(cc1[nH]2)C(C)=C5CCC(=O)OC)c(CCC(=O)O)c4C)[C@@]1(C)C3=CC=C(C(=O)OC)[C@H]1C(=O)OC was what?
Reply: N

Ask: For CN[C@@H]1[C@H](O[C@H]2[C@H](O[C@H]3[C@H](O)[C@@H](O)[C@H](N=C(N)N)[C@@H](O)[C@@H]3N=C(N)N)O[C@@H](C)[C@]2(O)C=O)O[C@@H](CO)[C@H](O)[C@H]1O , what call appears in the results of this test?
Reply: N

Ask: Dear colleague, could you share the recorded outcome for CCC(=O)NCCC1CCc2ccc3c(c21)CCO3 (stereo not drawn) when you have a moment?
Reply: Y

Ask: Please state the recorded outcome for this compound: CC(=O)Oc1c(C)cc(OCC(O)CNC(C)C)c(C)c1C (stereo not drawn)
Reply: N

Ask: I'd appreciate the recorded outcome for COc1cc(-c2ccc(-[n+]3nc(-c4ccccc4)nn3-c3ccc([N+](=O)[O-])cc3)c(OC)c2)ccc1-[n+]1nc(-c2ccccc2)nn1-c1ccc([N+](=O)[O-])cc1 from this test.
Reply: N

Ask: Which outcome did this test record for the compound CC1C(=O)CC2C3(C)CCC2(C(C)C(=O)O)C(=O)C13 (stereo not drawn) ?
Reply: N

Ask: Kindly provide the recorded test outcome for the following compound: CCN(CC)CCOCCOC(=O)C(CC)(CC)c1ccccc1
Reply: Y

Ask: Which outcome was assigned to c1ccc2c(c1)Sc1ccccc1N2CCN1CCCC1 in this test?
Reply: Y

Ask: I would be grateful if you could indicate the recorded call for CCC(Cc1c(I)cc(I)c(O)c1I)C(=O)O (stereo not drawn) .
Reply: N

Ask: What was the test verdict on CNCC(O)c1ccc(OC(=O)C(C)(C)C)c(OC(=O)C(C)(C)C)c1 (stereo not drawn) ?
Reply: N

Ask: Check the results log: what was the call for CC1=C[C@H](O)CC(C)(C)[C@H]1/C=C/C(C)=C/C=C/C(C)=C/C=C/C=C(C)/C=C/C=C(C)/C=C/C1=C(C)C[C@@H](O)CC1(C)C ?
Reply: N

Ask: // outcome(item) with item = CC[C@@]1(O)C(=O)OCc2c1cc1n(c2=O)Cc2cc3c([N+](=O)[O-])cccc3nc2-1
Reply: N

Ask: What was the test verdict on S=C1SCN(Cc2ccccc2)CN1Cc1ccccc1 ?
Reply: Y

Ask: Which outcome did this test record for the compound C/C1=C2N=C(/C=C3N=C(/C(C)=C4\[N-][C@@](C)([C@@H]5N=C1[C@](C)(CCC(=O)NCC(C)OP(=O)(O)O[C@H]1[C@@H](O)[C@@H](n6cnc7cc(C)c(C)cc76)O[C@@H]1CO)[C@H]5CC(N)=O)[C@@](C)(CC(N)=O)[C@@H]4CCC(N)=O)[C@@](C)(CC(N)=O)[C@@H]\3CCC(N)=O)C(C)(C)[C@@H]/2CCC(N)=O.CC(=O)O.[Co] (stereo partly drawn) ?
Reply: N

Ask: Recorded call for CO/N=C(\C(=O)N[C@@H]1C(=O)N2C(C(=O)O)=C(CSc3nnnn3C)CS[C@H]12)c1csc(N)n1 ?
Reply: N

Ask: Could you please tell me the result logged for CC(=O)O[C@H]1C[C@@]2(C)[C@@H](C[C@@H](O)[C@H]3[C@@]4(C)CC[C@@H](O)[C@@H](C)[C@@H]4CC[C@@]32C)/C1=C(\CCC=C(C)C)C(=O)O in this assay?
Reply: N

Ask: What classification did O=C(CCCN1CCC(C(=O)c2ccc(F)cc2)CC1)c1ccc(F)cc1 end up with in this test?
Reply: Y

Ask: # fetch the recorded call for CC1=C(/C=C/C(C)=C/C=C/C(C)=C/C=C/C=C(C)/C=C/C=C(C)/C=C/C2=C(C)C[C@@H](O)CC2(C)C)C(C)(C)C[C@H](O)C1 here
Reply: N

Ask: Answer briefly: the call reported for CN(C)C=Nc1c(I)cc(I)c(CCC(=O)O)c1I in this assay.
Reply: Y

Ask: Outcome logged for CO[C@H]1C[C@H](O[C@@H]2/C(C)=C/C[C@@H]3C[C@@H](C[C@]4(CC[C@H](C)[C@@H](C5CCCCC5)O4)O3)OC(=O)[C@@H]3C=C(C)/C(=N/O)[C@H]4OC/C(=C\C=C\[C@@H]2C)[C@]43O)O[C@@H](C)[C@@H]1O in this assay:
Reply: N

Ask: Record lookup: outcome of this test for O=C(O)C1=C(CSc2nnnn2CS(=O)(=O)O)CS[C@@H]2[C@H](NC(=O)[C@H](O)c3ccccc3)C(=O)N12 ?
Reply: N

Ask: Field: outcome | Entry: CC(=O)Oc1cc(C)c(OC(C)=O)c2ccccc12
Reply: N

====

assay: qHTS assay for small molecule disruptors of the mitochondrial membrane potential - cell viability (AID 720634); details: HepG2 viability, ATP luminescence (CellTiter-Glo), 1 h; series mostly up to 83.2 µM; further: nearly all actives have a fitted effect of over 20% in size
Inconclusive results are not listed. Active and inactive are the calls of the source. The call rests on the fitted dose curve. Positions of bridges follow the written chain, without caps; N, C: chain ends. Non-standard residues stand in square brackets, D forms with d. Residues, ends and D or L forms follow the SMILES beside them. Orn = NCCC[C@H](N)C(=O)O; Mpa = O=C(O)CCS
Return exactly one item of active, inactive

Ask: For CC[C@H]1NC(=O)[C@@H](NC(=O)c2ncccc2O)[C@@H](C)OC(=O)[C@H](c2ccccc2)NC(=O)[C@@H]2CC(=O)CCN2C(=O)[C@H](Cc2ccccc2)N(C)C(=O)[C@@H]2CCCN2C1=O , which call appears in the assay record?
Reply: inactive

Ask: Tell me the recorded outcome of this test for CNC(=O)[C@H](Cc1c[nH]c2ccccc12)NC(=O)[C@@H](CC(=O)NO)CC(C)C .
Reply: inactive

Ask: Per the assay record, what outcome was assigned to CCC[C@@]1(CCc2ccccc2)CC(O)=C([C@H](CC)c2cccc(NS(=O)(=O)c3ccc(C(F)(F)F)cn3)c2)C(=O)O1 ?
Reply: inactive

Ask: Tell me the recorded outcome of this test for CC[C@]1(O)CC2CN(CCc3c([nH]c4ccccc34)[C@@](C(=O)OC)(c3cc4c(cc3OC)N(C)[C@H]3[C@@](O)(C(N)=O)[C@H](O)[C@]5(CC)C=CCN6CC[C@]43[C@@H]65)C2)C1 (stereo partly specified) .
Reply: inactive

Ask: What did this assay record as the result for C#CCC(Cc1cnc2nc(N)nc(N)c2n1)c1ccc(C(=O)N[C@@H](CCC(=O)O)C(=O)O)cc1 (stereo partly specified) ?
Reply: inactive

Ask: How was OC(CN1CCCCC1)c1cc(-c2ccccc2)on1 (stereo unspecified) classified in this test?
Reply: inactive

Ask: Query: recorded result category for CC(=O)O[C@]1(C(C)=O)CC[C@H]2[C@@H]3CCC4=CC(=O)CC[C@]4(C)[C@@]3(F)[C@@H](O)C[C@@]21C in this test
Reply: inactive

Ask: Assay result, entry COC(=O)C1=C(C#N)NC(C)=C(C(=O)OC(C)C)C1c1cccc([N+](=O)[O-])c1 (stereo unspecified) — outcome?
Reply: active

Ask: Given Nc1ncnc2c1ncn2CCOCP(=O)(O)O , state the outcome it received in this test.
Reply: inactive

Ask: What was the test verdict on CN(C)CCC=C1c2ccccc2C(C)(C)c2ccccc21 ?
Reply: inactive

Ask: Answer briefly: the call reported for CC(C)(C)CC(=O)OCC(=O)[C@@]12OC(C)(C)O[C@@H]1C[C@H]1[C@@H]3CCC4=CC(=O)C=C[C@]4(C)[C@@]3(F)[C@@H](O)C[C@@]12C in this assay.
Reply: inactive

Ask: GET /call?item= O=C(NOC[C@H](O)CO)c1ccc(F)c(F)c1Nc1ccc(I)cc1F returns the recorded outcome of this test.
Reply: inactive

Ask: Entry CC[C@@H](C(=O)O)[C@@H]1O[C@@H]([C@@H](C)[C@H](O)[C@H](C)C(=O)[C@H](CC)[C@H]2O[C@]3(C=C[C@@H](O)[C@]4(CC[C@@](C)([C@H]5CC[C@](O)(CC)[C@H](C)O5)O4)O3)[C@H](C)C[C@@H]2C)[C@@H](C)C[C@@H]1C : call = ?
Reply: inactive

Ask: # fetch the recorded call for CC(=O)OC[C@H]1O[C@@H](O[C@H]2[C@H](O)[C@@H](OC(=O)c3ccccc3C(=O)O)[C@H](O)O[C@@H]2COC(C)=O)[C@H](O)[C@@H](OC(=O)c2ccccc2C(=O)O)[C@@H]1O here
Reply: inactive

Ask: Per the records of this test, what outcome belongs to CCCCCCCCCCCCCCCCCC(=O)[O][Al] ?
Reply: inactive

Ask: Entry CCCCCCCCCCCCCCCCSCC(COC)COP(=O)([O-])OCC[N+](C)(C)C (stereo unspecified) : call = ?
Reply: inactive

Ask: Call for entry CCCCC(F)(F)[C@@]1(O)CC[C@H]2[C@@H](CC(=O)[C@@H]2CCCCCCC(=O)O)O1 :
Reply: inactive

Ask: Look up the recorded call for CCCCCCCCCCCCCCCC(=O)OC[C@@H](NC(=O)C(Cl)Cl)[C@H](O)c1ccc([N+](=O)[O-])cc1 in this test.
Reply: inactive

Ask: Field: outcome | Entry: CC#CCC(C)[C@H](O)/C=C/[C@@H]1[C@H]2c3cccc(CCCC(=O)O)c3O[C@H]2C[C@H]1O (stereo partly specified)
Reply: inactive

Ask: Test call for this molecule, please: CCOc1ccc(C[C@H]2NC(=O)CCSSC[C@@H](C(=O)N3CCC[C@H]3C(=O)N[C@@H](CCCN)C(=O)NCC(N)=O)NC(=O)[C@H](CC(N)=O)NC(=O)[C@H]([C@@H](C)O)NC(=O)[C@H]([C@@H](C)CC)NC2=O)cc1 ([Mpa][dY](Et)ITNCP[Orn]G-NH2; disulfide 1-6)
Reply: inactive

Ask: Per the assay record, what outcome was assigned to CC(C)NCC(O)COc1ccccc1-n1cccc1 (stereo unspecified) ?
Reply: inactive

Source: PubChem BioAssay (Tox21)
